Entries with their measured pIC50, system Caspase 3 (Homo sapiens):
pIC50: −log10 of the molar value.

1) CCCN1CCN(CCCNC(=O)c2ccc3c(Cl)c4c(nc3c2)CCCC4)CC1 = < 3.70
2) CN(CCCNC(=O)c1ccc2c(Cl)c3c(nc2c1)CCCC3)Cc1ccccc1 = < 3.70
3) CCN(CC)CCCNC(=O)c1ccc2c(Cl)c3c(nc2c1)CCCC3 = < 3.70
4) CCCN(CCC)CCCNC(=O)c1ccc2c(Cl)c3c(nc2c1)CCCC3 = < 3.70
5) CCN(CC)CCNC(=O)c1ccc2c(Cl)c3c(nc2c1)CCCC3 = < 3.70
6) CC1CCCC(C)N1CCCNC(=O)c1ccc2c(Cl)c3c(nc2c1)CCCC3 (stereo not shown) = < 3.70

Tell me the measured pIC50 of CCN(CCCNC(=O)c1ccc2c(Cl)c3c(nc2c1)CCCC3)Cc1ccccc1 , please.
< 3.70
